biological target: human adenosine A2b receptor (Homo sapiens (Human), UniProt P29275); experiment: Cellular in vitro reporter gene test for A2b receptor activity (CHO-K1, CRE-luciferase, NECA stimulation); assay type: cell-based; conditions: recombinant CHO-K1 cell line, CRE-luciferase reporter, antagonism of EC50 concentration of NECA; in some cases means of several determinations, rounded to two significant figures; read-out: A2b receptor IC50
Sequence (P29275 whole entry): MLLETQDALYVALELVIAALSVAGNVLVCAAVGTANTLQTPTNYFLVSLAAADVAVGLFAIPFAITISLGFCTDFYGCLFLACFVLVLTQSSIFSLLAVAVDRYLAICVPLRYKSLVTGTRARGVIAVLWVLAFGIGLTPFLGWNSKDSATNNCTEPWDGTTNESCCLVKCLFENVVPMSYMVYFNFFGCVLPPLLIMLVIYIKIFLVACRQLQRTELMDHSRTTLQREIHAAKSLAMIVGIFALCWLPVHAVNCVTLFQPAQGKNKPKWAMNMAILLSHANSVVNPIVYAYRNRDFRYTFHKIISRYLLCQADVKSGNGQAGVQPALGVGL
pIC50: −log10 of the molar value.
Readout Label: pIC50

Check out these entries, answers already filled in.
Smiles Str | Meas Value
COCCn1c(=O)n(CCCF)c(=O)c2c(C)c(CN3CCNC3=O)sc21 | 7.51
CCn1c(=O)c2c(C)c(Cn3nc[nH]c3=O)sc2n(CF)c1=O | 7.32

a. COCCn1c(=O)n(CCc2ccccc2)c(=O)c2c(C(F)(F)F)c(CN3CCCC3=O)sc21
b. COCCn1c(=O)c2c(C)c(CN3CCNC3=S)sc2n(CCC(F)(F)F)c1=O
**Query** // pick min by pIC50: a , b Respond using the label that marks the chosen record.
**Result** a

###

biological target: human adenosine A2b receptor (Homo sapiens (Human), UniProt P29275); experiment: Cellular in vitro reporter gene test for A2b receptor activity (CHO-K1, CRE-luciferase, NECA stimulation); format: cell-based; details: recombinant CHO-K1 cell line, CRE-luciferase reporter, antagonism of EC50 concentration of NECA; in some cases means of several determinations, rounded to two significant figures; read-out: A2b receptor IC50
pIC50: −log10 of the molar value.
Readout Label: pIC50

Here is how some compounds turned out for pIC50.
Compound | pIC50
CCn1c(=O)c2c(C)c(CN3CCNC3=NC#N)sc2n(CC2CCO2)c1=O (single isomer, unassigned) [Example 258] | 7.48
Cc1c(CN2CCNC(=O)C2=O)sc2c1c(=O)n(CC(F)F)c(=O)n2CCC(F)(F)F [Example 125] | 8.06
CCn1c(=O)c2c(C)c(CN3CCNC3=S)sc2n(CC2CCCO2)c1=O (single isomer, unassigned) [Example 140] | 8.32
Cc1c(CN2CCNC2=O)sc2c1c(=O)n(CC(C)C)c(=O)n2CC1CCCO1 (single isomer, unassigned) [Example 197] | 7.74
CCn1c(=O)c2c(C)c(Cn3cc[nH]c3=O)sc2n(CC2CCCO2)c1=O (racemic) [Example 242] | 8.85

P. Cc1c(Cn2nc[nH]c2=O)sc2c1c(=O)n(CC(C)(C)C)c(=O)n2CC1CCCO1 (racemic) [Example 429]
Q. COCCn1c(=O)n(CC2CC2(F)F)c(=O)c2c(C)c(CN3CCNC3=O)sc21 (racemic) [Example 323]
**Query** Task for the reader: decide whether P or Q has the larger pIC50. Your choice should be expressed through its label.
**Result** Q
(Q: 7.47, P: 7.12)

###

biological target: human adenosine A2b receptor (Homo sapiens (Human), UniProt P29275); test: Cellular in vitro reporter gene test for A2b receptor activity (CHO-K1, CRE-luciferase, NECA stimulation); format: cell-based; conditions: recombinant CHO-K1 cell line, CRE-luciferase reporter, antagonism of EC50 concentration of NECA; in some cases means of several determinations, rounded to two significant figures; read-out: A2b receptor IC50
pIC50: −log10 of the molar value.
Readout Label: pIC50

Compound | Tested System | pIC50
COCCn1c(=O)n(C(C)C)c(=O)c2c(C)c(Cn3[nH]ccc3=O)sc21 [Example 133] | human adenosine A2b receptor (Homo sapiens (Human), UniProt P29275) | 7.59
CCOCCn1c(=O)n(CC(F)(F)F)c(=O)c2c(C)c(CN3CCNC3=S)sc21 [Example 153] | human adenosine A2b receptor (Homo sapiens (Human), UniProt P29275) | 8.19
Cc1c(CN2CCNC2=S)sc2c1c(=O)n(CC(F)F)c(=O)n2CCCF [Example 42] | human adenosine A2b receptor (Homo sapiens (Human), UniProt P29275) | 7.96

I. CCn1c(=O)c2c(C)c(CN3CCNC(=O)C3=O)sc2n(CC2CCCO2)c1=O (racemic) [Example 475]
II. CCn1c(=O)c2c(C)c(CN3CCNC(=O)C3=O)sc2n(CCOC)c1=O [Example 120]
III. CCCn1c(=O)c2c(C)c(CN3CCNC3=O)sc2n(CCOC)c1=O [Example 84]
IV. CCn1c(=O)c2c(C)c(CN3CCNC(=O)C3=O)sc2n(CC2CCCO2)c1=O (single isomer, unassigned) [Example 476]
V. CCn1c(=O)c2c(C)c(CN3CCNC3=NC(=O)OC)sc2n(CC2CCCO2)c1=O (racemic) [Example 374]
**Query** Ascending by pIC50, please. Returns: the labels listed in the requested order.
**Result** IV, I, II, V, III

###

molecular target: human adenosine A2b receptor (Homo sapiens (Human)); test: Cellular in vitro reporter gene test for A2b receptor activity (CHO-K1, CRE-luciferase, NECA stimulation); format: cell-based; conditions: recombinant CHO-K1 cell line, CRE-luciferase reporter, antagonism of EC50 concentration of NECA; in some cases means of several determinations, rounded to two significant figures; read-out: A2b receptor IC50
pIC50: −log10 of the molar value.
Readout Label: pIC50

Molecule | Readout Label | Meas Value
COCCn1c(=O)n(CCC=C(C)C)c(=O)c2c(C)c(CN3CCNC3=O)sc21 | pIC50 | 9.36
COCCn1c(=O)c2c(C)c(CN3CCNC(=O)C3=O)sc2n(CCC(F)(F)F)c1=O | pIC50 | 8.00
COCCn1c(=O)n(C(C)C(F)(F)F)c(=O)c2c(C)c(CN3CCNC3=NC(=O)OC)sc21 (single isomer, unassigned) [Example 515] | pIC50 | 7.62
CCn1c(=O)c2c(C)c(CN3CCNC3=NC(=O)OC)sc2n(CC2CCCO2)c1=O (single isomer, unassigned) [Example 375] | pIC50 | 8.20
COCCn1c(=O)c2c(C)c(Cn3cc[nH]c3=O)sc2n(CC2CCCO2)c1=O (single isomer, unassigned) [Example 348] | pIC50 | 7.32

P. COC(=O)N=C1NCCN1Cc1sc2c(c1C)c(=O)n(C(C)C)c(=O)n2CC1CCO1 (racemic) [Example 379]
Q. CCn1c(=O)c2c(C)c(CN3CCC(C)C3=O)sc2n(CCC(F)(F)F)c1=O (racemic)
**Query** Sorting ascending by pIC50, which comes first: P or Q ? Use the label to indicate which entry you chose.
**Result** P
(P: 7.89, Q: 8.10)

###

Target: human adenosine A2b receptor (Homo sapiens (Human), UniProt P29275)
Assay: Cellular in vitro reporter gene test for A2b receptor activity (CHO-K1, CRE-luciferase, NECA stimulation)
Assay type: cell-based
Conditions: recombinant CHO-K1 cell line, CRE-luciferase reporter, antagonism of EC50 concentration of NECA; in some cases means of several determinations, rounded to two significant figures; read-out: A2b receptor IC50
Experimental: B-1. Cellular In Vitro Tests for Determining A2b Receptor Activity and Adenosine Receptor Selectivity In the case of the A2a and A2b cell lines, this is a minimal promoter having a plurality of cAMP-responsive elements (CRE). Stimulation of the Gs-coupled A2b or A2a receptors by NECA ultimately leads, via formation of cAMP, to CRE-dependent induction of luciferase expression, which is detected 3 hours after the start of the incubation with NECA using a detection solution in a suitable luminometer. […]
pIC50: −log10 of the molar value.
Readout Label: pIC50

Before answering, review these 3 worked examples.
Molecule | Meas Value
CCn1c(=O)c2c(C)c(CN3CCNC3=S)sc2n(CC(F)F)c1=O | 8.00
CCOCCn1c(=O)c2c(C)c(CN3CCNC3=O)sc2n(CCCF)c1=O | 7.28
COCCn1c(=O)n(C(C)COC)c(=O)c2c(C)c(CN3CCNC3=O)sc21 (racemic) [Example 329] | 6.05

P. CCn1c(=O)c2c(C)c(CN3CCNC3=O)sc2n(CCOC2CC2)c1=O
Q. Cc1c(CN2CCNC(=O)C2=O)sc2c1c(=O)n(C(C)C)c(=O)n2CCC(F)(F)F
R. CCn1c(=O)c2c(C)c(CN3CCNC3=O)sc2n(CC2CCCCO2)c1=O (single isomer, unassigned) [Example 179]
S. COC(=O)N=C1NCCN1Cc1sc2c(c1C)c(=O)n(C(C)C)c(=O)n2CC1CCCO1 (single isomer, unassigned) [Example 459]
**Query** Arrange the 4 molecules by rising pIC50, starting with the smallest. Answer with the labels in sequence, matching the requested order.
**Result** R, Q, P, S
(R: 6.70, Q: 7.39, P: 7.68, S: 8.31)

A. Cc1c(CN2CCNC2=S)sc2c1c(=O)n(CC(C)C)c(=O)n2CCCF
B. COCCn1c(=O)n(C(C)C(F)(F)F)c(=O)c2c(C)c(CN3CCNC3=O)sc21 (single isomer, unassigned) [Example 499]
**Query** Of the two listed items, which has the higher pIC50? First: A Second: B Select an item and report its label.
**Result** A

I. CCn1c(=O)c2c(C)c(CN3CCNC3=O)sc2n(CCCC(F)(F)F)c1=O
II. CCn1c(=O)c2c(C)c(C(C)N3CCNC3=O)sc2n(CCC(F)(F)F)c1=O (single isomer, unassigned) [Example 504]
III. COCCn1c(=O)n(CCc2ccccc2)c(=O)c2c(C)c(CN3CCOCC3=O)sc21
IV. Cc1c(Cn2[nH]ccc2=O)sc2c1c(=O)n(CC(F)(F)F)c(=O)n2CC1CCCO1 (racemic) [Example 284]
**Query** Rank order required: pIC50, descending. Reply with the labels, ordered as the question asks.
**Result** I, III, IV, II
(I: 8.60, III: 7.77, IV: 7.10, II: 5.70)
